Origin of values: ChEMBL document CHEMBL1157107

test system: AGS; test: Cytotoxicity against human AGS cells after 24 hrs by neutral red uptake assay; type: cell-based
Quick list: pIC50 per entry.
pIC50 (log units): -log10 of the concentration in mol/L.

Examples with their reported pIC50 follow.
INPUT: Given the compound "COc1c(C(C)C)cc2c(c1O)[C@@]1(C(=O)O)CCCC(C)(C)[C@@H]1CC2" , what is its reported pIC50?
OUTPUT: 4.34

INPUT: Given the compound "CC(C)c1cc2c3c(c1OC(=O)c1cccnc1)OC(=O)[C@@]31CCCC(C)(C)[C@@H]1CC2" , what is its reported pIC50?
OUTPUT: 3.55

INPUT: Given the compound CC(C)c1cc2c3c(c1OC(=O)c1ccccc1C(=O)Oc1c(C(C)C)cc4c5c1OC(=O)[C@]51CCCC(C)(C)C1CC4)OC(=O)[C@@]31CCCC(C)(C)[C@@H]1CC2 (some centres undefined) , what is its reported pIC50?
OUTPUT: 3.43

Okay, now this compound:
INPUT: Given the compound "CC(C)c1cc2c3c(c1OC(=O)Cc1c[nH]c4ccccc14)OC(=O)[C@@]31CCCC(C)(C)[C@@H]1CC2" , what is its reported pIC50?
OUTPUT: 4.07

---

test system: HepG2; test: Cytotoxicity against human HepG2 cells after 24 hrs by neutral red uptake assay; format: cell-based; conditions: HepG2, 24 h
pIC50: −log10 of the molar value.
Use 4 as the dividing line for pIC50, with the line itself on the Met side and lower values as Not met.

INPUT: Is the recorded value of pIC50 equal to or greater than 4 for this molecule? "CCC(=O)Oc1c(C(C)C)cc2c3c1OC(=O)[C@@]31CCCC(C)(C)[C@@H]1CC2"
OUTPUT: Not met

Further cases:
INPUT: Is the recorded value of pIC50 equal to or greater than 4 for this molecule? "CC(C)c1cc2c3c(c1O)OC(=O)[C@@]31CCCC(C)(C)[C@@H]1CC2"
OUTPUT: Not met

INPUT: Is the recorded value of pIC50 equal to or greater than 4 for this molecule? "CC(C)c1cc2c(c(O)c1O)[C@@]1(C(=O)O)CCCC(C)(C)[C@@H]1CC2"
OUTPUT: Met

INPUT: Is the recorded value of pIC50 equal to or greater than 4 for this molecule? "CC(=O)Oc1c(C(C)C)cc2c3c1OC(=O)[C@@]31CCCC(C)(C)[C@@H]1CC2"
OUTPUT: Not met

INPUT: Is the recorded value of pIC50 equal to or greater than 4 for this molecule? "CC(C)c1cc2c3c(c1OC(=O)c1ccccc1)OC(=O)[C@@]31CCCC(C)(C)[C@@H]1CC2"
OUTPUT: Not met

INPUT: Is the recorded value of pIC50 equal to or greater than 4 for this molecule? CC(C)c1cc2c3c(c1OC(=O)CCC(=O)Oc1c(C(C)C)cc4c5c1OC(=O)[C@]51CCCC(C)(C)C1CC4)OC(=O)[C@@]31CCCC(C)(C)[C@@H]1CC2 (stereo partly specified)
OUTPUT: Not met

INPUT: Is the recorded value of pIC50 equal to or greater than 4 for this molecule? "CC(C)c1cc2c3c(c1OC(=O)Cc1c[nH]c4ccccc14)OC(=O)[C@@]31CCCC(C)(C)[C@@H]1CC2"
OUTPUT: Not met

INPUT: Is the recorded value of pIC50 equal to or greater than 4 for this molecule? "CCCCCCCCCCCCCCCC(=O)Oc1c(C(C)C)cc2c3c1OC(=O)[C@@]31CCCC(C)(C)[C@@H]1CC2"
OUTPUT: Not met

---

Quick list: IC50 per entry.
tested on: AGS; test: Cytotoxicity against human AGS cells after 24 hrs by neutral red uptake assay; assay type: cell-based
Give a bare numeral; the unit µM is implied.

INPUT: Given the molecule CC(C)c1cc2c3c(c1OC(=O)CCC(=O)Oc1c(C(C)C)cc4c5c1OC(=O)[C@]51CCCC(C)(C)C1CC4)OC(=O)[C@@]31CCCC(C)(C)[C@@H]1CC2 (stereo partly specified) , what is its reported IC50?
OUTPUT: 623

Further cases:
INPUT: Given the molecule "CC(C)c1cc2c3c(c1OC(=O)Cc1ccccc1)OC(=O)[C@@]31CCCC(C)(C)[C@@H]1CC2" , what is its reported IC50?
OUTPUT: 133

INPUT: Given the molecule "CC(C)c1cc2c3c(c1OC(=O)CCl)OC(=O)[C@@]31CCCC(C)(C)[C@@H]1CC2" , what is its reported IC50?
OUTPUT: 103

---

system: HepG2; assay: Cytotoxicity against human HepG2 cells after 24 hrs by neutral red uptake assay; format: cell-based; conditions: HepG2, 24 h
pIC50: −log10 of the molar value.
Use 4 as the dividing line for pIC50, with the line itself on the Condition met side and lower values as Condition not met.

# count of solved cases: 3
INPUT: Is the recorded value of pIC50 equal to or greater than 4 for this molecule? "COc1c(C(C)C)cc2c(c1O)[C@@]1(C(=O)O)CCCC(C)(C)[C@@H]1CC2"
OUTPUT: Condition met

INPUT: Is the recorded value of pIC50 equal to or greater than 4 for this molecule? "CCCCCCCCCCCC(=O)Oc1c(C(C)C)cc2c3c1OC(=O)[C@@]31CCCC(C)(C)[C@@H]1CC2"
OUTPUT: Condition not met

INPUT: Is the recorded value of pIC50 equal to or greater than 4 for this molecule? "CC(C)c1cc2c3c(c1OC(=O)Cc1ccccc1)OC(=O)[C@@]31CCCC(C)(C)[C@@H]1CC2"
OUTPUT: Condition not met

Further cases:
INPUT: Is the recorded value of pIC50 equal to or greater than 4 for this molecule? "CCCC(=O)Oc1c(C(C)C)cc2c3c1OC(=O)[C@@]31CCCC(C)(C)[C@@H]1CC2"
OUTPUT: Condition met

INPUT: Is the recorded value of pIC50 equal to or greater than 4 for this molecule? CC(C)c1cc2c3c(c1OC(=O)c1ccccc1C(=O)Oc1c(C(C)C)cc4c5c1OC(=O)[C@]51CCCC(C)(C)C1CC4)OC(=O)[C@@]31CCCC(C)(C)[C@@H]1CC2 (stereo partly drawn)
OUTPUT: Condition not met

INPUT: Is the recorded value of pIC50 equal to or greater than 4 for this molecule? "COc1c(C(C)C)cc2c3c1OC(=O)[C@@]31CCCC(C)(C)[C@@H]1CC2"
OUTPUT: Condition met

INPUT: Is the recorded value of pIC50 equal to or greater than 4 for this molecule? "CCCCC/C=C/C/C=C/CCCCCCCC(=O)Oc1c(C(C)C)cc2c3c1OC(=O)[C@@]31CCCC(C)(C)[C@@H]1CC2"
OUTPUT: Condition not met

---

system: AGS; test: Cytotoxicity against human AGS cells after 24 hrs by neutral red uptake assay; format: cell-based
Quick list: pIC50 per entry.
pIC50 (log units): -log10 of the concentration in mol/L.

INPUT: Form entry - test system: AGS; read-out: pIC50; compound: "CCCCCCCCCCCC(=O)Oc1c(C(C)C)cc2c3c1OC(=O)[C@@]31CCCC(C)(C)[C@@H]1CC2"
OUTPUT: 3.38

INPUT: Form entry - test system: AGS; read-out: pIC50; compound: "CC(C)C(=O)Oc1c(C(C)C)cc2c3c1OC(=O)[C@@]31CCCC(C)(C)[C@@H]1CC2"
OUTPUT: 3.98

INPUT: Form entry - test system: AGS; read-out: pIC50; compound: "CC(=O)Oc1c(C(C)C)cc2c3c1OC(=O)[C@@]31CCCC(C)(C)[C@@H]1CC2"
OUTPUT: 3.56

INPUT: Form entry - test system: AGS; read-out: pIC50; compound: "CCC(=O)Oc1c(C(C)C)cc2c3c1OC(=O)[C@@]31CCCC(C)(C)[C@@H]1CC2"
OUTPUT: 3.95

INPUT: Form entry - test system: AGS; read-out: pIC50; compound: "CC(C)c1cc2c3c(c1OC(=O)CCCc1c[nH]c4ccccc14)OC(=O)[C@@]31CCCC(C)(C)[C@@H]1CC2"
OUTPUT: 4.33

Further cases:
INPUT: Form entry - test system: AGS; read-out: pIC50; compound: "CCCCCCCC/C=C/CCCCCCCC(=O)Oc1c(C(C)C)cc2c3c1OC(=O)[C@@]31CCCC(C)(C)[C@@H]1CC2"
OUTPUT: 3.09

INPUT: Form entry - test system: AGS; read-out: pIC50; compound: "CCCC(=O)Oc1c(C(C)C)cc2c3c1OC(=O)[C@@]31CCCC(C)(C)[C@@H]1CC2"
OUTPUT: 4.00

INPUT: Form entry - test system: AGS; read-out: pIC50; compound: "CC(C)c1cc2c3c(c1OC(=O)c1ccccc1)OC(=O)[C@@]31CCCC(C)(C)[C@@H]1CC2"
OUTPUT: 3.30

INPUT: Form entry - test system: AGS; read-out: pIC50; compound: "CCCCC/C=C/C/C=C/CCCCCCCC(=O)Oc1c(C(C)C)cc2c3c1OC(=O)[C@@]31CCCC(C)(C)[C@@H]1CC2"
OUTPUT: 3.60

INPUT: Form entry - test system: AGS; read-out: pIC50; compound: "CC(C)c1cc2c3c(c1O)OC(=O)[C@@]31CCCC(C)(C)[C@@H]1CC2"
OUTPUT: 3.61

INPUT: Form entry - test system: AGS; read-out: pIC50; compound: "COc1c(C(C)C)cc2c3c1OC(=O)[C@@]31CCCC(C)(C)[C@@H]1CC2"
OUTPUT: 4.57

INPUT: Form entry - test system: AGS; read-out: pIC50; compound: "CC(C)c1cc2c(c(O)c1O)[C@@]1(C(=O)O)CCCC(C)(C)[C@@H]1CC2"
OUTPUT: 4.05
